Each entry below carries its reported logD.
# Experiment Description: Lipophilicity, logD at pH 7.4
# Format: physicochemical
# Experimental Context: buffer, read-out: logD

query_smiles=C/C=C1/NC(=O)CC[C@H](C(=O)OCOC(=O)CC)NC(=O)[C@@H](C)[C@H](/C=C/C(C)=C/[C@H](C)[C@H](Cc2ccccc2)OC)NC(=O)[C@H](CCCNC(=N)N)NC(=O)[C@@H](C)[C@H](C(=O)OCOC(=O)CC)NC1=O observed_measurement=-0.7

Now look at this entry.
Ask: Output measured logD for this item: C/C=C1/NC(=O)CC[C@H](C(=O)OCOC(C)=O)NC(=O)[C@@H](C)[C@H](/C=C/C(C)=C/[C@H](C)[C@H](Cc2ccccc2)OC)NC(=O)[C@H](CCCNC(=N)N)NC(=O)[C@@H](C)[C@H](C(=O)OCOC(C)=O)NC1=O
Result: -2
